From: patent EP0823908B1

Target: human FGF-1 (flg) receptor tyrosine kinase (Homo sapiens)
Construct: amplify a fragment of DNA that codes for the intracellular tyrosine kinase domain; made in house; host or cells: SF9 insect cells (baculovirus)
Sequence (P11362 478-767 limits assumed): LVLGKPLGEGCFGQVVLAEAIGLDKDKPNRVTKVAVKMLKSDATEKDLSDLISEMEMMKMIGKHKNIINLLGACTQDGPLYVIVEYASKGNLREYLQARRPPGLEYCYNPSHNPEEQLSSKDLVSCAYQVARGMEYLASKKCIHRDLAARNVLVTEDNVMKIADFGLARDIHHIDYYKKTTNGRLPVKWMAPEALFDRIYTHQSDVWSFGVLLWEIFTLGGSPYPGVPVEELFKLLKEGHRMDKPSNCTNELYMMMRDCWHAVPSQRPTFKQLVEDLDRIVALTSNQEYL
Test: FGF receptor tyrosine kinase assay (32P incorporation into glutamate-tyrosine co-polymer)
Format: biochemical
Settings: read-out: FGFr-TK IC50
Please assign No whenever IC50 is at or above 6000 nM, and Yes whenever it is below.

Check out these entries, answers already filled in.
>>> df
                                   compound  qualitativelabel
0  CCn1c(=O)c(-c2c(Cl)cccc2Cl)cc2cnc(S(C)(=O)=O)nc21 [Example 68]                No
1  CCn1c(=N)c(-c2cccs2)cc2cnc(Nc3ccccc3)nc21 [Example 103]               Yes
2  Cc1cccc(C)c1-c1cc2cnc(N)nc2n(C)c1=O [Example 13]                No
3  CC(C)(C)OC(=O)Cn1c(=O)c(-c2c(Cl)cccc2Cl)cc2cnc(N)nc21 [Example 36]               Yes

Shifting focus to the compound that follows.
Q. Is it true that IC50 reported for CCn1c(=O)c(-c2c(Cl)cccc2Cl)cc2cnc(Nc3ccc(OC)c(OC)c3)nc21 [Example 77] is less than 6000 nM?
A. Yes
